pIC50: −log10 of the molar value.
Reported values: pIC50 for Solute carrier family 26 member 6 (Mus musculus), one per item.
readout.kind: pIC50

Some solved entries appear below for comparison.
>>> quantitative_readout("CCOC(=O)c1nc(NCCc2ccsc2)c2c(C)noc2n1")
5.74
>>> quantitative_readout("CCOC(=O)c1nc(NCc2ccccc2)c2c(CC)noc2n1")
5.37
>>> quantitative_readout("CCOC(=O)c1nc(NCCc2cccs2)c2c(CC)noc2n1")
5.80
>>> quantitative_readout("CCOC(=O)c1nc(Nc2ccccc2C)c2c(C)noc2n1")
5.43

a = CCOC(=O)c1nc(NCCc2ccccc2Cl)c2c(CC)noc2n1
b = CCOC(=O)c1nc(NCCC(C)C)c2c(C)noc2n1
INPUT: Could you check which of a and b has a smaller value for pIC50? Reply briefly: the label of your chosen item.
OUTPUT: a
